Ref: PubChem BioAssay

- Run description: HUVEC growth inhibition – cell-based, human, primary screen (AID 575);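 also: 100% = median of untreated cell wells with 0.1% DMSO on each plate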
- Assay setup: HUVEC proliferation, CellTiter-Glo luminescence, 72 h; at 10 µM; hits give low values
Assay endpoint: viability (%)
Numbers only, in %.

Example results:
> print(dat)
                                   compound  experimental.result
1                  Oc1cccc(C=NCc2ccccc2)c1O                 67.3
2  CC1CCN(C(=O)CSc2nnc(Cc3cc(=O)[nH]c(=O)[nH]3)n2-c2ccc(Cl)cc2)CC1                  101
3  CCn1c2ccccc2c2cc(Nc3cc(C)nc4ncnn34)ccc21                 18.1
4     O=C(Nc1cccc(Cl)c1)N1CCN(Cc2ccccc2)CC1                  103
5         NC(=O)c1cccc2c1C(=O)N(C1CCCCC1)C2                   76
6           O=C(NCc1ccc(F)cc1)c1cc2ccccn2n1                   99

# map each compound to its viability
1. CC(=O)c1c(OC(=O)c2ccco2)c2ccccc2n1C
2. COc1ccc(-n2c(Cc3cccn3C)nnc2SCC(=O)Nc2ccccc2)cc1
3. CC1=C(C(=O)Nc2ccccc2)C(c2ccccn2)n2nc(CCCO)nc2N1 (stereo not drawn)

Reply text:
1. 74.6
2. 99
3. 101
